The origin of these recorded values is patent US20260132182A1.

# study.system: human GLP-1 receptor (human, UniProt P43220 24-463)
# protocol.text: cell-based or functional assay
Starred links: 1 amine or outer side, 2 acyl side, 3 side chain; linkers in the order of their positions; H or OH if unused. Non-standard residues stand in square brackets, D forms with d. Groups on a side chain read outwards from the residue. *: point of attachment. C20 diacid = O=C(O)CCCCCCCCCCCCCCCCCCC(=O)*; C18 diacid = O=C(O)CCCCCCCCCCCCCCCCC(=O)*; γGlu = O=C(O)[C@H](CCC(=O)[*:2])N[*:1]; Trx = NC[C@H]1CC[C@H](C(=O)O)CC1; AEEA = NCCOCCOCC(=O)O; Aib = CC(C)(N)C(=O)O; Ahx = NCCCCCC(=O)O
measured.parameter: Human GLP-1R potency [EC50 (pM)]
// note: answer is a bare numeric in pM

(Q) Which Human GLP-1R potency [EC50 (pM)] is reported for this binder? Compound 0263 (peptide) peptide: H[Aib]EGTFTSDVSSYLEEQAAREFIAWLVRGRK([AEEA-AEEA-γGlu-Trx-C20 diacid])EASELSTAALGRLSAELHELATLPRTETGSGSP-NH2
(A) 13.8

(Q) Which Human GLP-1R potency [EC50 (pM)] is reported for this binder? Compound 0503 (peptide) peptide: H[Aib]EGTFTSDVSSYLEEQAAREFIEWLVRGRK([AEEA-AEEA-γGlu-Trx-C20 diacid])GGGGEASELSTAALGRLSAELHELATLPRTETGSGSP-NH2
(A) 6.5

(Q) Which Human GLP-1R potency [EC50 (pM)] is reported for this binder? Compound 0658 (peptide) peptide: H[Aib]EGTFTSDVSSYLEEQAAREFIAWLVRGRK([Ahx-Ahx-γGlu-C18 diacid])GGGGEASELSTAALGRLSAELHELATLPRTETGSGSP-NH2
(A) 3.1

(Q) Which Human GLP-1R potency [EC50 (pM)] is reported for this binder? Compound 0156 (peptide) peptide: H[Aib]EGTFTSDVSSYLEGQAAK([AEEA-AEEA-γGlu-C18 diacid])EFIAWLVRGRGQAPGQEPEASELSTAALGRLSAELHELATLPRTETGSGSP-NH2
(A) 22.6
